test system: HT-1080; assay: Cytotoxicity against human HT-1080 cells assessed as cell viability measured after 72 hrs by MTT assay; type: functional, cell-based; conditions: HT-1080, 72 h
Measurement Label: IC50 (µM)
Output spec: scalar in µM, unitless text.

Item: O=C(NCCCCCNC(=O)c1ccc([N+](=O)[O-])o1)c1ccc([N+](=O)[O-])o1 | IC50: 9.31

====

system: SARS-CoV-2; assay: Antiviral activity against SARS-CoV-2 assessed as inhibition of replication by qRT-PCR analysis; type: functional, organism-based; settings: Severe acute respiratory syndrome coronavirus 2
Measurement Label: EC50
The reply must contain the numeric value and, after it, the unit.

Item: O=C(NCCCCCNC(=O)c1ccc([N+](=O)[O-])o1)c1ccc([N+](=O)[O-])o1 | EC50: 10.7 µM
